# Tested on: SMMC-7721 (human hepatocellular carcinoma)
# Measurement Notes: MTT cytotoxicity assay, SMMC-7721
# Assay type: cell-based
# Assay Context: SMMC-7721 cells
pIC50: −log10 of the molar value.

Compound	Measurement Target	pIC50
CC(C)=CC[C@H]1C[C@@]23C[C@H](CC=C(C)C)C(C)(C)[C@@](CC=C(C)C)(C(=O)C(OC(=O)c4ccc(O)c(O)c4)=C2OC1(C)C)C3=O (relative stereo)	SMMC-7721 (human hepatocellular carcinoma)	4.97

----------
# Test system: MCF-7 (human breast adenocarcinoma)
# Measurement Notes: MTT cytotoxicity assay, MCF-7
# Assay type: cell-based
# Assay Context: MCF-7 cells

Compound	IC50 [µM]
CC(C)=CC[C@H]1C[C@@]23C[C@H](CC=C(C)C)C(C)(C)[C@@](CC=C(C)C)(C(=O)C(OC(=O)c4ccc(O)c(O)c4)=C2OC1(C)C)C3=O (relative stereo)	20.3
